# Tgt: D(1A) dopamine receptor (Homo sapiens) (UniProt P21728)
# Sequence (P21728 whole entry, looked up): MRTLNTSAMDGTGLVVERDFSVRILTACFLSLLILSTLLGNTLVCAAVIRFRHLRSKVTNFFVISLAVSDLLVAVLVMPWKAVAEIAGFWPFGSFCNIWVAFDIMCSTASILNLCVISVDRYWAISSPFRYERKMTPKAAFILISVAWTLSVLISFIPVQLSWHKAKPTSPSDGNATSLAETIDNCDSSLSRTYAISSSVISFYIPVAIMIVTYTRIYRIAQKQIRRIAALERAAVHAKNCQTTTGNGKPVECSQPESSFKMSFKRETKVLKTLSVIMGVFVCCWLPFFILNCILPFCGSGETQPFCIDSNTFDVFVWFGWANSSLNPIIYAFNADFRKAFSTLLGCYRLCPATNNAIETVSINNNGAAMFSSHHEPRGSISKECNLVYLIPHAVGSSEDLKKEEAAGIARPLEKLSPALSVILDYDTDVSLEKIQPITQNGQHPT
# Assay info: D1 CRE-luciferase signal change, two-sided – cell-based, HEK293 D1, dopamine EC30, D1 allosteric modulator project, primary screen (AID 641)
# Conditions used: dopamine EC30 potentiation, at 10 µM, actives deviate in either direction
Screen size: about 58,000 compounds; about 3,400 (5.9%) were called active.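 The calls were made as follows: active = luminescence count or its row- and column-corrected plate score outside the 99.7% band of the plate's sample wells, on either side; inactive = the rest.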 The sample as a whole holds a higher share of actives than the screen did.
API: response.call in active, inactive

Reference set, count: 2
• CCOc1ccccc1Oc1cn[nH]c1-c1ccc(OC)cc1O = inactive
• CC(=O)Nn1cc2c(=O)n(C)c(=O)n(C)c2c1 = inactive

In this assay, the call recorded for "CCCC(=O)N=c1sc2cccc(F)c2n1C" was what?
inactive

In this assay, the call recorded for "O=C(NCCCNCc1ccccc1)c1ccc(/C=N/O)nc1" was what?
inactive

In this assay, the call recorded for "COc1ccc(OC)c(-n2cc3c(=O)n(C)c(=O)n(C)c3c2)c1" was what?
inactive

In this assay, the call recorded for "COc1ccc(-c2nnco2)cc1OC" was what?
active

In this assay, the call recorded for "O=C(Cn1cnc2c(nnn2Cc2ccc(F)cc2)c1=O)NCc1ccc2c(c1)OCO2" was what?
inactive

---

Catalogue of B-score values
# Tgt: D(1A) dopamine receptor (Homo sapiens) (UniProt P21728)
# Assay info: D1 CRE-luciferase signal change, two-sided – cell-based, HEK293 D1, dopamine EC30, D1 allosteric modulator project, primary screen (AID 641)
# Conditions used: dopamine EC30 potentiation, at 10 µM, actives deviate in either direction
Hit rate of the full screen: of about 58,000 compounds, about 3,400 (5.9%) were called active. This excerpt belongs to a sample that is enriched for actives.
Enter a number only.

• CCSc1nc2c(c(=O)[nH]1)C(c1cccnc1)C(C(=O)OC(C)C)=C(C)N2 (centres undefined) = 0.843
• C1=C(CCNc2ncnc3c2cnn3-c2ccccc2)CCCC1 = -1.37
• CCOC(=O)N1CCN(C(=O)CN(c2ccc(C)c(C)c2)S(=O)(=O)c2ccccc2)CC1 = -0.0191
• Cc1ccc(-n2ncc3c(=O)[nH]cnc32)c(C)c1 = -0.523
• COc1nc(NCc2ccc(Cl)cc2)nc(OC)n1 = 6.81

What the record says about "COC(=O)c1ccc(NC(=O)c2ccco2)cc1" : B-score is -1.96

What the record says about "CCSc1nc(C)nc2c1oc1ccccc12" : B-score is 10.5

What the record says about "Cc1cccn2c(=O)c3cc(C(=O)NCc4ccccn4)n(C)c3nc12" : B-score is 0.762

What the record says about "CCCOC(=O)Nc1sc2c(c1C(=O)OCC)CCC2" : B-score is -0.0171

What the record says about "O=C(NCc1ccccn1)c1cc2ccccc2oc1=O" : B-score is 0.0147

What the record says about COc1ccc2[nH]c(=O)c(CN(CC3CCCO3)C(=O)Nc3ccccc3)cc2c1 (centres undefined) : B-score is -0.175

---

# Tgt: D(1A) dopamine receptor (Homo sapiens)
# Assay info: D1 CRE-luciferase signal change, two-sided – cell-based, HEK293 D1, dopamine EC30, D1 allosteric modulator project, primary screen (AID 641)
# Conditions used: dopamine EC30 potentiation, at 10 µM, actives deviate in either direction
Hit rate of the full screen: of about 58,000 compounds, about 3,400 (5.9%) were called active. The full list was thinned out, with actives kept by preference.
Catalogue of B-score values
Enter a number only.

The examples below pair each entry with its known result.
• COc1cc(NS(=O)(=O)c2ccccc2)ccc1-n1nc(C)cc1C = -0.763
• O=C(CSC1=NCCS1)Nc1nc(-c2ccccc2)cs1 = 2.09

What the record says about "CCOC(=O)c1cnc(-n2nc(C)cc2C)nc1Nc1cccc(C(C)=O)c1" : B-score is 0.96

What the record says about "CCOC(=O)c1cc2n(c1N)-c1ccccc1C2=O" : B-score is 1.46

What the record says about "COC(=O)c1ccc(/C=N\n2c(C)nnc2C)cc1" : B-score is -1.78

What the record says about "CCOC(=O)c1cc2ccccc2nc1C" : B-score is 0.135
